# Assayed system: human Y4 stable CHO clonal cells (Homo sapiens)
# Sequence (P50391 whole entry): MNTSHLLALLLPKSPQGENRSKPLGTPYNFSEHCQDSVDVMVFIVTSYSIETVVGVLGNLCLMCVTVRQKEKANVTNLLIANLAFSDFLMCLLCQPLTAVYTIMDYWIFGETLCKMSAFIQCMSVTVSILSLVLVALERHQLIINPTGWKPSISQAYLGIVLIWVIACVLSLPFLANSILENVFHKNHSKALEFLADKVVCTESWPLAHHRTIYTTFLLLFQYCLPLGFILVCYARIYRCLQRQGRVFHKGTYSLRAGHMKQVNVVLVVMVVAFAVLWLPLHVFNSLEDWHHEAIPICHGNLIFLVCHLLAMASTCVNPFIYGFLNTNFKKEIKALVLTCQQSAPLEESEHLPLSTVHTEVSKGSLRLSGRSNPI
# Method summary: NPY4 cAMP HTRF Agonist Assay
# Condition summary: inhibitory cAMP assay, Gi activation by Y4 agonism, forskolin and IBMX, 30 minutes at room temperature
pEC50: −log10 of the molar value.
Recorded endpoint: pEC50

[[record]]
compound = "Cc1ccccc1N1CCCC[C@H](NC(=O)[C@H](CC[C@H](Cc2ccccc2)C(=O)N[C@H]2CCS[C@H]3CC[C@@H](C(F)(F)F)CN3C2=O)Cc2ccccc2)C1=O"
recorded_endpoint = "pEC50"
assay_result = 6.57

[[record]]
compound = "COC(=O)[C@@H]1CCC[C@@H]2SCC[C@H](NC(=O)[C@H](CC[C@H](CC3CCCCC3)C(=O)N[C@H]3CCS[C@H]4CCC[C@@H](C(=O)OC)N4C3=O)Cc3cccc(Cl)c3)C(=O)N21"
recorded_endpoint = "pEC50"
assay_result = 6.08


(P) COC[C@@H]1CCC[C@@H]2SCC[C@H](NC(=O)[C@H](CC[C@H](Cc3ccccc3)C(=O)N[C@H]3CCCCN(c4ccccc4)C3=O)Cc3ccccc3)C(=O)N12
(Q) COC(=O)[C@@H]1CCC[C@@H]2CCC[C@H](NC(=O)[C@H](CC[C@H](Cc3ccccc3)C(=O)N[C@H]3CCC[C@H]4CCC[C@@H](C(=O)OC)N4C3=O)Cc3ccccc3)C(=O)N21
Req: Choose between P and Q : whose measured pEC50 value is numerically larger? Mark your answer with the label of the selected entry.
Resp: Q
